# System: MKK7;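 note: KINOMEscan kinase panel screen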
# condition_context: concentration: 1 μM, replicates: in singlicate; n = 1
Each record here notes measured %Inh.

molecule	test_target	%Inh
Cc1ccc(NC(=O)c2cccc(C#N)c2)cc1-c1ccc(C(=O)Nc2ccncc2)cc1 [GSK1398463]	MKK7	0%
COc1ccc(Nc2nccc(N3CCC(NC(=O)Nc4ccc5c(c4)OCO5)C3)n2)cc1 (centres unmarked) [GSK1379745]	MKK7	24%
Cc1ccc(O)cc1Nc1cc(C(F)(F)F)nc2ccc(-c3ccncc3)cc12 [GW630823]	MKK7	0%
Fc1cccc(COc2ccc(Nc3ncnc4cc[nH]c34)cc2Cl)c1	MKK7	0%
OCCOCCn1ccc2ncnc(Nc3ccc(Oc4cccc(Cl)c4)c(Cl)c3)c21	MKK7	0%
O=C(c1ccc(-c2cc(-c3c[nH]nc3-c3ccccn3)ccn2)cc1)N1CCCC1 [GW792479]	MKK7	0%
Cl.Cn1ccc(-c2cccc(Nc3ccnc4cc(-c5nccs5)ccc34)c2)n1 [GW525701]	MKK7	0%
Cn1ccc2ncnc(Nc3ccc(Oc4cccc(Cl)c4)c(Cl)c3)c21	MKK7	0%
CC(=O)Nc1n[nH]c2ncc(-c3ccccc3)cc12 [SB-548492]	MKK7	2%
Nc1nc(-c2ccc3c(N)n[nH]c3c2)cc(N2CCC[C@@H](C(=O)Nc3ccccc3)C2)n1.O=C(O)C(F)(F)F.O=C(O)C(F)(F)F [GSK2288359]	MKK7	0%
CCCc1ccc(S(=O)(=O)NC2CCN(c3ccnc(Nc4ccc(OC)cc4)n3)C2)cc1 (centres unmarked) [GSK1379737]	MKK7	0%
CCc1nc(-c2cccc(C)c2)c(-c2ccnc(NC(=O)c3ccccc3)c2)s1	MKK7	0%
Cn1ccc2ncnc(Oc3ccc(NC(=O)Nc4cccnc4)c(Cl)c3)c21	MKK7	0%
Cl.c1ccc(Cn2ccc3cc(Nc4ncnc5ccccc45)ccc32)cc1 [GW275568]	MKK7	7%
CCn1c(-c2ccncc2)nc2cnccc21 [SB-735216]	MKK7	5%
Clc1ccc(-c2cc(-c3c[nH]nc3-c3ccccn3)ccn2)cc1 [GW681251]	MKK7	30%
CC(C)N1CCC(n2cnc(-c3ccc(F)cc3)c2-c2ccnc(N)n2)CC1 [SB-223132]	MKK7	0%
CNc1nccc(-c2c(-c3ccc(F)cc3)ncn2CCCN2CCOCC2)n1 [SB-222516]	MKK7	0%
O=C(Nc1ccccc1)Nc1ccc(Oc2ccc3nccn3n2)cc1	MKK7	0%
O=c1cc(N2CCOCC2)nc2n(Cc3cccc(Cl)c3)ccn12 [GSK2296823]	MKK7	12%
N#Cc1ccc(Oc2ccc(Nc3ncnc4cc[nH]c34)cc2Cl)cc1	MKK7	0%
O=C(Nc1n[nH]c2nc(-c3ccco3)c(Br)cc12)c1ccc(CN2CCCC2)cc1.O=C(O)[C@H](O)[C@@H](O)C(=O)O [SB-742352]	MKK7	0%
CS(=O)(=O)CCNCc1nc(-c2ccc3ncnc(Nc4ccc(OCc5cccc(F)c5)c(Cl)c4)c3c2)cs1.Cl [GW583340]	MKK7	0%
Cc1cc(N2CCC(NS(=O)(=O)c3ccc(F)cc3)CC2)nc(Nc2cccc(C#N)c2)n1.O=C(O)C(F)(F)F [GSK1653537]	MKK7	0%
COc1cc2ncnc(Nc3ccc(OCc4ccccc4Br)c(Cl)c3)c2cc1OC.Cl [GI261590]	MKK7	0%
C[C@@H]1CCN(C(=O)CO)C[C@@H]1N(C)c1ncnc2[nH]ccc12	MKK7	0%
Oc1ccc2ncnc(Nc3ccc(OCc4ccccc4)cc3)c2c1 [GI262866]	MKK7	0%
Nc1nccc2scc(-c3ccc4c(c3)CCN4C(=O)Cc3cc(F)ccc3F)c12 [GSK2587663]	MKK7	0%
FC(F)(F)c1ccc(-c2cc(-c3c[nH]nc3-c3ccccn3)ccn2)cc1 [GW599550]	MKK7	0%
Fc1cccc(COc2ccc(Nc3ncnc4sc(-c5ccc[nH]5)cc34)cc2Cl)c1 [GW707818]	MKK7	8%
Nc1n[nH]c2nnc(-c3ccccc3)cc12 [SB-517389]	MKK7	0%
O=C(CCO)NCCn1ccc2ncnc(Nc3ccc(Oc4cccc(C(F)(F)F)c4)c(Cl)c3)c21	MKK7	0%
Nc1nc(-c2cccnc2)c(-c2ccnc3ccccc23)s1 [GW684083]	MKK7	0%
Clc1cccc(-c2nc(Nc3ccncc3)c3ccccc3n2)c1 [GW873004]	MKK7	0%
COc1cc2c(Nc3cccc(NC(=O)c4ccccc4)c3)ncnc2cc1OCCCN1CCOCC1 [GSK223810]	MKK7	0%
